Test system: CP291
Assay: qHTS profiling for inhibitors of Plasmodium falciparum proliferation (AID 504749); also: nearly all actives have a fitted effect of over 60% in size
Settings: P. falciparum in erythrocytes, SYBR Green DNA, 72 h; series mostly up to 28.7 µM
Records with an inconclusive call do not appear. Activity calls are given as the source filed them. Calls follow the shape of the dose curve; as a rule, active = well fitted inhibition curve with a large enough effect; inconclusive = small, poorly fitted or top-dose-only effect; inactive = flat fitted curve, though single readings scatter.
Select the correct class. Options are T for active, F for inactive and nothing else.

Lookup: Hi team, can someone confirm the assay call for O=C1NC(=O)C2C3C=CC(C3)C12 (stereo not drawn) ?
Found: F

Lookup: Hey, what did the test say about O=c1ccn(C2OC(COP(=O)(O)OC3C(CO)OC(n4ccc(=O)[nH]c4=O)C3O)C(O)C2O)c(=O)[nH]1 (stereo not drawn) ?
Found: F

Lookup: Which outcome did this test record for the compound NC(=O)NC(CCC(=O)O)C(=O)O (stereo not drawn) ?
Found: F

Lookup: What classification did `CN(C)CC/C=C1\c2ccccc2COc2ccc(CC(=O)O)cc21` end up with in this test?
Found: F

Lookup: Could you check what this test reported for `CCCSS/C(CCO)=C(/C)N(C=O)Cc1cnc(C)nc1N` ?
Found: F

Lookup: Which outcome was assigned to CC1(C)O[C@@H]2C[C@H]3[C@@H]4CCC5=CC(=O)C=C[C@]5(C)[C@H]4C(O)C[C@]3(C)[C@]2(C(=O)CO)O1 (stereo partly drawn) in this test?
Found: F

Lookup: Tell me the recorded outcome of this test for CCCCCOC(=O)Nc1nc(=O)n(C2O[C@H](C)[C@@H](O)[C@@H]2O)cc1F (stereo partly drawn) .
Found: F

Lookup: What was the test verdict on C[N+]12CCCC[C@@H]1CCC(=C(c1cccs1)c1cccs1)C2 (stereo partly drawn) ?
Found: T

Lookup: What call does the record list for CN1[C@H]2CC(OC(=O)[C@H](CO)c3ccccc3)C[C@H]1[C@H]1O[C@H]12 (stereo partly drawn) ?
Found: F

Lookup: What outcome does the record of this test show for `C[S+](C)CC[C@H](N)C(=O)O` ?
Found: F

Lookup: What did this assay record as the result for `Clc1ccc(CS[C@@H](Cn2ccnc2)c2ccc(Cl)cc2Cl)cc1` ?
Found: T

Lookup: Assay result, entry Cc1onc(-c2c(F)cccc2Cl)c1C(=O)NC1C(=O)N2C1SC(C)(C)C2C(=O)O (stereo not drawn) — outcome?
Found: F

====

Test: NFAT Signaling Pathway (AID 444);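 also: carbachol stimulus at about its EC50 of 1 µM final; % is scaled to controls: 0 for no effect and ±100 for the full control effect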
Details: Jurkat NFAT-bla M1, carbachol, beta-lactamase ratio, 5 h; at 17.2 µM (top of the series) unless noted
Results filed as inconclusive are left out. Active and inactive are the calls of the source. Calls follow the shape of the dose curve; as a rule, active = well fitted curve in either direction with a large enough effect (not every such curve was filed as active); inconclusive = small, poorly fitted or top-dose-only effect, or another doubt; inactive = flat fitted curve, though single readings scatter.
Metric name: activity change, negative = inhibition

As a guide, the following entries are already answered.
Compound	activity change, negative = inhibition
COc1ccc(C2C(C(C)=O)=C(O)C(=O)N2c2nccs2)cc1OC (stereo unspecified)	21.8% (inactive)
CCC1CC2(C)NC(=O)c3c(sc4c3CC(C)(C)OC4)N2C1=O (stereo unspecified)	-20.5% (inactive)
CCOc1ccc(NC(=O)CSC2=C(C#N)C(c3ccc4c(c3)OCO4)CC(=O)N2)cc1 (stereo unspecified)	-5.95% (inactive)
COC(=O)CN(c1nc(C)cc(OC)n1)S(=O)(=O)c1ccccc1	-15.3% (inactive)
Cc1ccc(NC(=O)c2cc(N3CCOCC3)nc3ccccc23)cc1	19.3% (inactive)

Lookup: Identify activity change, negative = inhibition associated with the compound `COc1ccc(C=NCCCN2CCOCC2)cc1`
Found: -2.1% (inactive)
